- MEASURED_TARGET: Sphingosine kinase 1 (Homo sapiens) (UniProt Q9NYA1);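 note: mean SPHK1 inhibition value reported from the GSK PKIS kinase panel screen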
- Sequence (Q9NYA1 whole entry): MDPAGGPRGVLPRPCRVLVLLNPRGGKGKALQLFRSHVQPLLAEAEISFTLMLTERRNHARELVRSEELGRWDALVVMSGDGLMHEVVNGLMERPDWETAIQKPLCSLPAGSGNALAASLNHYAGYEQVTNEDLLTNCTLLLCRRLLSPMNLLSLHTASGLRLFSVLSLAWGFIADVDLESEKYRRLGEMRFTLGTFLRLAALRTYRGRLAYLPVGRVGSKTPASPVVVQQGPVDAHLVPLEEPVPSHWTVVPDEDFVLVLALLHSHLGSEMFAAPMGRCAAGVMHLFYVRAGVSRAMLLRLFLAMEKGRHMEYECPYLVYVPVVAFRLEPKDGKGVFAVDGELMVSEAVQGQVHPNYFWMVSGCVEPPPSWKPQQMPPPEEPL
- TEST_CONDITIONS: at 1 µM
ENDPOINT_LABEL: inhibition
Mention the unit after the number when you answer.

STRUCTURE_NOTATION	inhibition
Cc1nnc(-c2ccc(C)c(-c3ccc(C(=O)NCc4ccc(Cl)cc4)cc3)c2)o1	-3.95%

-- ask Please look up its inhibition: CCS(=O)(=O)c1ccc(OC)c(Nc2ncc(-c3ccccc3Cl)o2)c1
-- reply -2.06%

-- ask Please look up its inhibition: CN(C)CCCNc1nccc(-c2c(-c3ccc(F)cc3)nn3cc(C(F)(F)F)ccc23)n1
-- reply -2.46%

###

- MEASURED_TARGET: Epidermal growth factor receptor (Homo sapiens) (UniProt P00533);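 note: values are mean inhibition figures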
- Sequence (P00533 whole entry): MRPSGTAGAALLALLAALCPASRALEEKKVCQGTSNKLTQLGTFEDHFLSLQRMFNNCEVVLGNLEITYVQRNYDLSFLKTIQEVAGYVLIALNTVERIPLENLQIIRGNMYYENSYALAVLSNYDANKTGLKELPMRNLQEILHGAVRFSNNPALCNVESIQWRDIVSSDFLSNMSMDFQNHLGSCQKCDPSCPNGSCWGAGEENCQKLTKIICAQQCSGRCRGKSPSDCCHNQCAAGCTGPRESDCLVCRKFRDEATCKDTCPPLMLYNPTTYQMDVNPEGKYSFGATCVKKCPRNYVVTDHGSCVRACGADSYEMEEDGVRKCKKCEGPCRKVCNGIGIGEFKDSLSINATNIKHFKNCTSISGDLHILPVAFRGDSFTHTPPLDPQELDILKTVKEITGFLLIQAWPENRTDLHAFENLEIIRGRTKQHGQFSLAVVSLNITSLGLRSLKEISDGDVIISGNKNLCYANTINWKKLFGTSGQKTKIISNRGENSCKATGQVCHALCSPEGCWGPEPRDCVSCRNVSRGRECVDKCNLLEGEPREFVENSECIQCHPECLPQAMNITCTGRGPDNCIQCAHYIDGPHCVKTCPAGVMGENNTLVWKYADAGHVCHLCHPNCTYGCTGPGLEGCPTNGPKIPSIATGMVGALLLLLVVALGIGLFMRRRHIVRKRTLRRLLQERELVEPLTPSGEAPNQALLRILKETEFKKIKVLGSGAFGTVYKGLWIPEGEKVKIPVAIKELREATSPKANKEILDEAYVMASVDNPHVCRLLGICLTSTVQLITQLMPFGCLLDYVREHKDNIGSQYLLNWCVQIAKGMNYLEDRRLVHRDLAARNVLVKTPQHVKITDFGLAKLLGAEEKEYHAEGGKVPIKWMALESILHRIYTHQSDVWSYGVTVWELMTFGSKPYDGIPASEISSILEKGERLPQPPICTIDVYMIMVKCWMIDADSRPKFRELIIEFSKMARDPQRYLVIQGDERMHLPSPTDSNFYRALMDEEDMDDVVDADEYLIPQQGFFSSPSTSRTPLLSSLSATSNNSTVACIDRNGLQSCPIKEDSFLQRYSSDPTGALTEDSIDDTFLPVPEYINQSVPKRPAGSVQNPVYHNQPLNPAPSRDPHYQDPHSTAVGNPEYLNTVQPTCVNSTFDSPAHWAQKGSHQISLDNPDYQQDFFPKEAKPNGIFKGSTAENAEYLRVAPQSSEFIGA
- TEST_CONDITIONS: at 1 µM
ENDPOINT_LABEL: inhibition (%)
# output: bare number, implied unit %

Reference set, count: 6
COMPOUND	inhibition / %
COc1cc(Nc2ncc(-c3ccccc3)o2)cc(OC)c1OC	13.8
COc1ccc(C2=C(N3CCc4ccccc43)C(=O)NC2=O)cc1	3.59
NC(=O)Cc1ccccc1Oc1nccc(-c2c(-c3ccc(F)cc3)ncn2C2CCNCC2)n1	4.51
CN(C)CCCNc1nccc(-c2c(-c3ccc(F)cc3)nn3cc(C(F)(F)F)ccc23)n1	1.24
Cc1ccc(NC(=O)c2ccoc2)cc1-c1ccc(C(=O)NCC2CC2)cc1	6.36
COc1cc2ncn(-c3cc(OCc4cccs4)c(C(N)=O)s3)c2cc1OC	1.76

-- ask Please look up its inhibition: C#Cc1cccc(Nc2ncnc3ccc(OCCCCNCCS(C)(=O)=O)cc23)c1
-- reply 85.4

-- ask Please look up its inhibition: CS(=O)(=O)CCNCc1ccc(-c2ccc3ncnc(Nc4ccc(OCc5ccccc5)c(Br)c4)c3c2)o1
-- reply 81.6

-- ask Please look up its inhibition: O=C(Nc1n[nH]c2nc(-c3ccco3)ccc12)C1CC1
-- reply 4.53

-- ask Please look up its inhibition: c1ccc(-c2n[nH]cc2-c2ccnc(-c3ccc(OCCN4CCOCC4)cc3)c2)nc1
-- reply 6.67

###

Each entry below lists one item and its recorded inhibition value.
- MEASURED_TARGET: Vascular endothelial growth factor receptor 1 (Homo sapiens) (UniProt P17948)
- Sequence (P17948 whole entry): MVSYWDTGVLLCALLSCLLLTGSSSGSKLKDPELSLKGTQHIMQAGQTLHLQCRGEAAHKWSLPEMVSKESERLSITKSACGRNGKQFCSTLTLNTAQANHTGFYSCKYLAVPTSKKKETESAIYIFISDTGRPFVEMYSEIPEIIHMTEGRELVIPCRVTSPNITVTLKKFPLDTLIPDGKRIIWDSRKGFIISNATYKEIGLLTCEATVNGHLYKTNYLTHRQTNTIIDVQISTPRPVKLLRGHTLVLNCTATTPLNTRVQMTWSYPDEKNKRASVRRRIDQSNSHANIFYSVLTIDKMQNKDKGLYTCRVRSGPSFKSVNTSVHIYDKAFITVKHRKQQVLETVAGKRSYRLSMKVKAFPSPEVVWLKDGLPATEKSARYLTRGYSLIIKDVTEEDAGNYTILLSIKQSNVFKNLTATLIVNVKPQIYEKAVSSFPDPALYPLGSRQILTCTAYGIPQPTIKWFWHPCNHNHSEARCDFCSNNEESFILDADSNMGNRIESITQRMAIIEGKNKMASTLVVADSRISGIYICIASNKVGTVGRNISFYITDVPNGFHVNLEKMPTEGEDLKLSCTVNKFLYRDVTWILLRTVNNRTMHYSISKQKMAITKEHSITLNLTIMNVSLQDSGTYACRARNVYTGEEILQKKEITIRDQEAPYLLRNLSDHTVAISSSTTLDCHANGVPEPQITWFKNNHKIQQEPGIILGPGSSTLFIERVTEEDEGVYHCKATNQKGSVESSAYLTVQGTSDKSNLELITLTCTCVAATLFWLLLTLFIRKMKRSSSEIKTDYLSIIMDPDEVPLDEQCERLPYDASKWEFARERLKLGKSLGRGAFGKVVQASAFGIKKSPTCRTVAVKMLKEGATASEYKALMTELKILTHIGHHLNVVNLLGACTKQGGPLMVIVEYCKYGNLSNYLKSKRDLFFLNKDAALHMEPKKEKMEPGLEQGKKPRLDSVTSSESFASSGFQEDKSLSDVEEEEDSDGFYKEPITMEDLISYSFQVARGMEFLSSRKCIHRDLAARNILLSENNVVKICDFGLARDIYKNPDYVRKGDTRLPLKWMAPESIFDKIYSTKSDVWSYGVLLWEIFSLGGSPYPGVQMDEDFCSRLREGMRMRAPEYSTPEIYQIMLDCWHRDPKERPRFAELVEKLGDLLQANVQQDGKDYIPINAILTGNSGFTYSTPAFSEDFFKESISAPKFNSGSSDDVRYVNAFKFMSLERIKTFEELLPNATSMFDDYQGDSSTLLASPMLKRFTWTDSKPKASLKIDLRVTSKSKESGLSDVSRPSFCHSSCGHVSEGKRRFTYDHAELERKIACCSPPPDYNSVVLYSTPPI
- TEST_CONDITIONS: at 1 µM
- Description: GSK_PKIS: FLT1 mean inhibition at 1 uM [Nanosyn]
Mention the unit after the number when you answer.

Reference set, count: 8
COMPOUND	TEST_RESULT
CS(=O)(=O)CCNCc1cc(-c2cc3c(Nc4ccc(OCc5cccc(F)c5)c(Cl)c4)ncnc3s2)cs1	0.78%
O=C(Nc1n[nH]c2nc(-c3ccco3)ccc12)C1CC1	7.88%
O=C(Nc1n[nH]c2cc(-c3cc(F)ccc3F)ccc12)C1CC1	1.91%
N#Cc1ccc(Oc2nccc(-c3c(-c4ccc(F)cc4)ncn3C3CCNCC3)n2)cc1	-0.67%
CS(=O)(=O)CCNCc1ccc(-c2ccc3ncnc(Nc4ccc(OCc5ccccc5)c(Br)c4)c3c2)o1	2.16%
Fc1ccc(-c2ncn(C3CCNCC3)c2-c2ccnc(Oc3ccc(F)c(F)c3)n2)cc1	4.56%
C[C@@H](Oc1cc(-n2cnc3ccc(OCC4CCN(C)CC4)cc32)sc1C(N)=O)c1ccccc1Cl	-0.37%
Cc1ccc(C(=O)NC2CCC2)cc1-c1ccc(C(=O)NCC2CC2)cc1	-0.61%

-- ask Query for Vascular endothelial growth factor receptor 1 (Homo sapiens) (UniProt P17948): what inhibition does the record show for COc1ccc2cc(-c3c(-c4ccncc4)nc(-c4ccc(S(C)(=O)=O)cc4C)n3C)ccc2c1 ?
-- reply 2.09%

-- ask Query for Vascular endothelial growth factor receptor 1 (Homo sapiens) (UniProt P17948): what inhibition does the record show for c1ccc(Oc2ccc(Nc3ncc(-c4ccccc4)o3)cc2)cc1 ?
-- reply 4.46%

###

- MEASURED_TARGET: Glycogen synthase kinase-3 beta (Homo sapiens);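 note: values are mean percent inhibition of GSK3B activity, from the GSK Published Kinase Inhibitor Set (PKIS) screening dataset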
- TEST_CONDITIONS: at 0.1 µM
Please note: Y applies when inhibition is 3% or greater, and N applies otherwise.

Known results for compounds:
STRUCTURE_NOTATION	ANSWER_LABEL
NC(=O)c1cc(-c2ccc(F)cc2)cc(-c2ccncc2)c1N	N
O=C(Nc1ccc(Oc2ccc3[nH]c(NC(=O)c4ccccc4)nc3c2)cc1)Nc1cc(C(F)(F)F)ccc1F	Y
COc1cccc(/C=N/Nc2ncnc3c2cnn3-c2cccc(OC)c2)c1	Y
CN(C)CCCNc1nccc(-c2c(-c3ccc(F)cc3)nn3cc(C(F)(F)F)ccc23)n1	Y

Please examine the following record next.
-- ask Decide: is the reported value of inhibition for NS(=O)(=O)c1ccc(N/N=C2\C(=O)Nc3ccc(-c4cnco4)cc32)cc1 equal to or greater than 3%?
-- reply Y

###

- MEASURED_TARGET: Fibroblast growth factor receptor 2 (Homo sapiens) (UniProt P21802);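 note: reported figure is a mean percent inhibition of FGFR2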
- Sequence (P21802 22-821 limits assumed): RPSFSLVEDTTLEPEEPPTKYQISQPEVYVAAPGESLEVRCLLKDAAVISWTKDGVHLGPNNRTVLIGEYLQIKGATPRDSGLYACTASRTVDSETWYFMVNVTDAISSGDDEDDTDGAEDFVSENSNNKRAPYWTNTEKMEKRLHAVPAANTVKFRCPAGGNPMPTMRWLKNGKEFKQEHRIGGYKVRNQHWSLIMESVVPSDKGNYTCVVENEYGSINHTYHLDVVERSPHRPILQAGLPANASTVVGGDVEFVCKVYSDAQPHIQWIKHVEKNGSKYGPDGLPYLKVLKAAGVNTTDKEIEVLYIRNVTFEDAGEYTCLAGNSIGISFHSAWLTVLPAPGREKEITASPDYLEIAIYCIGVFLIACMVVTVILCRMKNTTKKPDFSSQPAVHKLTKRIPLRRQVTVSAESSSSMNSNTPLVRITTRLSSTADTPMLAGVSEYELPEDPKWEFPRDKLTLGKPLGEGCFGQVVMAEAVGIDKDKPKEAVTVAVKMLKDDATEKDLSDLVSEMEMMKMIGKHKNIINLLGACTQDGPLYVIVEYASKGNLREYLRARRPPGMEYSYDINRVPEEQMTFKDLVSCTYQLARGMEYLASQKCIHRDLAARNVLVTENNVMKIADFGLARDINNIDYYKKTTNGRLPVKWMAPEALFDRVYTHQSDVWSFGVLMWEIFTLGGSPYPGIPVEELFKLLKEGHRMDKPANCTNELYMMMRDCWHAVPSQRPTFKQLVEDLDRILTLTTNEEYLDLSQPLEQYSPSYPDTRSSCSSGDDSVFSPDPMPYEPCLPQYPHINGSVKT
- TEST_CONDITIONS: at 1 µM
ENDPOINT_LABEL: inhibition (%)
# output: bare number, implied unit %

Reference set, count: 8
COMPOUND	inhibition, %
CCN(CC)Cc1ccc(Nc2nccc(-c3cnn4ncccc34)n2)cc1	8.8
NC(=O)c1cc(-c2ccc(F)cc2)cc(-c2ccncc2)c1N	4.41
CN1CCN(CCCNc2nc3ccc(Oc4ccc(NC(=O)Nc5cc(C(F)(F)F)ccc5F)cc4)cc3[nH]2)CC1	1.51
NS(=O)(=O)c1ccc(N/N=C2\C(=O)Nc3ccc(C(=O)NCCCn4ccnc4)cc32)cc1	8.85
Nc1nccc(-c2c(-c3ccc(F)cc3)ncn2C2CCC(O)CC2)n1 (stereo unspecified)	1.23
CS(=O)(=O)CCNCc1ccc(-c2ccc3ncnc(Nc4ccc(OCc5ccccc5)c(Br)c4)c3c2)o1	4.45
Cc1ccc(NC(=O)c2ccoc2)cc1-c1ccc(C(=O)NCC2CC2)cc1	3.44
O=C(Nc1n[nH]c2nc(-c3ccco3)ccc12)C1CC1	5.26

-- ask Please look up its inhibition: COc1ccc(-c2ccc3c(NC(=O)C4CC4)n[nH]c3n2)cc1
-- reply 0.42

-- ask Please look up its inhibition: CCc1nccc2c1nc(-c1nonc1N)n2CC
-- reply 3.19

-- ask Please look up its inhibition: CCc1ccc(Oc2nccc(-c3c(-c4ccc(F)cc4)ncn3C3CCNCC3)n2)cc1
-- reply 5.8

-- ask Please look up its inhibition: COC(=O)Nc1nc2ccc(Sc3ccc(NC(=O)Nc4cc(C(F)(F)F)ccc4F)cc3)cc2[nH]1
-- reply 4

-- ask Please look up its inhibition: c1ccc(-c2n[nH]cc2-c2ccnc(-c3ccc(OCCN4CCOCC4)cc3)c2)nc1
-- reply 7.12

-- ask Please look up its inhibition: NS(=O)(=O)c1ccc(Nc2cc(-c3ccc(O)c(F)c3)n[nH]2)cc1
-- reply 9.61

-- ask Please look up its inhibition: Fc1ccc(-c2c(-c3ccncc3)nc3n2CCS3)cc1
-- reply 0.6

-- ask Please look up its inhibition: Clc1ccc(CNc2nccc(-c3cnn4ncccc34)n2)cc1
-- reply 1.7

-- ask Please look up its inhibition: CN(C)c1ccc2c(c1)/C(=C/Nc1ccc(S(N)(=O)=O)cc1)C(=O)N2
-- reply 31.6

-- ask Please look up its inhibition: COc1ccc2ncn(-c3cc(O[C@H](C)c4ccccc4Cl)c(C(N)=O)s3)c2c1
-- reply 5.18

-- ask Please look up its inhibition: COc1cc(N2CCN(C(C)C)CC2)ccc1Nc1nc(Nc2ccc(F)cc2C(=O)NC[C@@H](O)CO)c2cc[nH]c2n1
-- reply 1.86

-- ask Please look up its inhibition: COc1ccc2cc(-c3c(-c4ccncc4)nc(-c4ccc([S+](C)[O-])cc4C)n3C)ccc2c1 (stereo unspecified)
-- reply 2.09

-- ask Please look up its inhibition: CN(C)CCOc1ccc(-c2cc(-c3ccc4c(c3)CCC4=NO)c(-c3ccncc3)o2)cc1
-- reply -0.7

###

Each entry below lists one item and its recorded inhibition value.
- MEASURED_TARGET: Serine/threonine-protein kinase Chk1 (Homo sapiens);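 note: reported figure is the mean percent inhibition of CHEK1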
- TEST_CONDITIONS: at 0.1 µM
# output: bare number, implied unit %

MOLECULE	inhibition / %
CCS(=O)(=O)c1ccc(OC)c(Nc2ncc(-c3ccccc3Cl)o2)c1	5.3
CN(C)c1ccc2c(c1)/C(=C/Nc1ccc(S(N)(=O)=O)cc1)C(=O)N2	8.69
CN1CCN(CCCNc2nc3ccc(Oc4ccc(NC(=O)Nc5cc(C(F)(F)F)ccc5F)cc4)cc3[nH]2)CC1	-0.5
COc1ccc2cc(-c3c(-c4ccncc4)nc(-c4ccc([S+](C)[O-])cc4C)n3C)ccc2c1 (stereo unspecified)	-4.29
Cc1nnc(-c2ccc(C)c(-c3ccc(C(=O)NCc4ccc(Cl)cc4)cc3)c2)o1	1.36

Continue with the next molecule.
-- ask Please look up its inhibition: CCN(CC)Cc1ccc(Nc2nccc(-c3cnn4ncccc34)n2)cc1
-- reply 1.29

###

Each entry below lists one item and its recorded inhibition value.
- MEASURED_TARGET: MAP kinase-activated protein kinase 3 (Homo sapiens) (UniProt Q16644)
- Sequence (Q16644 whole entry, looked up): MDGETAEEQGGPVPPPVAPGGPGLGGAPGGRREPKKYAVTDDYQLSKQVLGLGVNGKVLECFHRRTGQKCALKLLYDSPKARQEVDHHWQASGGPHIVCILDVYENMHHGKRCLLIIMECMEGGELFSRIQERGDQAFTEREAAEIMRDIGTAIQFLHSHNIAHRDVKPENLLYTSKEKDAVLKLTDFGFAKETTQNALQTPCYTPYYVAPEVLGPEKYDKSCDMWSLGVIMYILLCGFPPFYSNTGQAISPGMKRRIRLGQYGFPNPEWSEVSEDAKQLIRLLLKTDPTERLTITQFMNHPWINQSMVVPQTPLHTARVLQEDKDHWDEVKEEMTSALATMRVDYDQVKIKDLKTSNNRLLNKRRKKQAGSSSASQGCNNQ
- TEST_CONDITIONS: at 1 µM
- Description: GSK_PKIS: MAPKAPK3 mean inhibition at 1 uM [Nanosyn]
# output: bare number, implied unit %

Reference set, count: 5
COMPOUND	RESULT_UNIT	inhibition
Fc1ccc(-c2ncn(C3CCNCC3)c2-c2ccnc(Oc3ccc(Oc4ccccc4)cc3)n2)cc1	%	46.2
NS(=O)(=O)c1ccc(N/N=C2\C(=O)Nc3ccc(-c4cnco4)cc32)cc1	%	-0.48
CN(C)c1ccc2c(c1)/C(=C/Nc1ccc(S(N)(=O)=O)cc1)C(=O)N2	%	-0.05
COc1ccc2ncn(-c3cc(O[C@H](C)c4ccccc4Cl)c(C(N)=O)s3)c2c1	%	2.49
Cc1ccc(C(=O)NC2CCC2)cc1-c1ccc(C(=O)NCC2CC2)cc1	%	18.9

-- ask Please look up its inhibition: CS(=O)(=O)CCNCc1cc(-c2cc3c(Nc4ccc(OCc5cccc(F)c5)c(Cl)c4)ncnc3s2)cs1
-- reply 4.64

-- ask Please look up its inhibition: O=C(Nc1n[nH]c2nc(-c3ccco3)ccc12)C1CC1
-- reply 7.18

-- ask Please look up its inhibition: O=C(Nc1n[nH]c2cc(-c3cc(F)ccc3F)ccc12)C1CC1
-- reply 3.99

-- ask Please look up its inhibition: COc1cccc(/C=N/Nc2ncnc3c2cnn3-c2cccc(OC)c2)c1
-- reply 2.33

-- ask Please look up its inhibition: O=C1Nc2ccc(I)cc2C1=Cc1cc(Br)c(O)c(Br)c1
-- reply 3.75

-- ask Please look up its inhibition: FC(F)(F)c1cccc(Nc2nccc(-c3cnn4nc(-c5ccccc5)ccc34)n2)c1
-- reply 2.87

-- ask Please look up its inhibition: CCc1ccc(Oc2nccc(-c3c(-c4ccc(F)cc4)ncn3C3CCNCC3)n2)cc1
-- reply 37.5

-- ask Please look up its inhibition: COc1ccc(C2=C(N3CCc4ccccc43)C(=O)NC2=O)cc1
-- reply 5.21
